assay: DRUGMATRIX: Glutamate, NMDA, Agonism radioligand binding (ligand: [3H] CGP-39653); format: cell membranes, Rattus norvegicus, Wistar, Cerebral cortex, Membrane; conditions: Not Active = under 50% inhibition at 10 µM

{"compound": "C[C@]12CCC(=O)C=C1CC[C@@H]1[C@@H]2CC[C@@]2(C)[C@H]1CC[C@]2(C)O", "IC50": "Not Active"}
{"compound": "CCCC1O[C@@H]2C[C@H]3[C@@H]4CCC5=CC(=O)C=C[C@]5(C)[C@H]4[C@@H](O)C[C@]3(C)[C@]2(C(=O)CO)O1 (stereo partly drawn) [BUDESONIDE]", "IC50": "Not Active"}
{"compound": "Cc1c(C)c2c(c(C)c1O)CCC(C)(COc1ccc(CC3SC(=O)NC3=O)cc1)O2 (stereo not drawn)", "IC50": "Not Active"}

* * *

Quick list: pKi per entry.
molecular target: 5-hydroxytryptamine receptor 2B (Homo sapiens, UniProt P41595); type: cell membranes, CHO-K1, Membrane; settings: read-out: Ki; also: in other assays of this panel Not Active means under 50% inhibition at 10 µM
Sequence (P41595 whole entry): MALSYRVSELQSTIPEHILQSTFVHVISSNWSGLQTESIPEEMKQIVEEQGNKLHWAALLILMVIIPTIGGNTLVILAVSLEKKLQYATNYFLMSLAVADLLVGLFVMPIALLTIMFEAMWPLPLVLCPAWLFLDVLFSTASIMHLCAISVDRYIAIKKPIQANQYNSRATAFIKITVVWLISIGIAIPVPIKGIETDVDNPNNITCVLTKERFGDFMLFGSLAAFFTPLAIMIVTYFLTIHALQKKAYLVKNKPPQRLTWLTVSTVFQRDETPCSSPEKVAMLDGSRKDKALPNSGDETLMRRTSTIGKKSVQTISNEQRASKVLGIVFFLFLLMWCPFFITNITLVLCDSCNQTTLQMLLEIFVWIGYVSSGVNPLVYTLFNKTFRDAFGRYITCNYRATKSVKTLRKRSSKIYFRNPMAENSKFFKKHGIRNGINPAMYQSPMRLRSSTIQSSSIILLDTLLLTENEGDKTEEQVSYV
// returns pKi (minus log10 of molar concentration), number only

These recorded examples may help you get a feel for the data.
{"compound": "CC[C@@]1(O)C[C@H](O[C@H]2C[C@H](N(C)C)[C@H](O[C@H]3C[C@H](O)[C@H](O[C@H]4CCC(=O)[C@H](C)O4)[C@H](C)O3)[C@H](C)O2)c2c(cc3c(c2O)C(=O)c2c(O)cccc2C3=O)[C@H]1C(=O)OC", "pKi": 6.15}
{"compound": "CC/C(=C(\\c1ccccc1)c1ccc(OCCN(C)C)cc1)c1ccccc1", "pKi": 5.88}
{"compound": "Cc1cccc(N(C)C(=S)Oc2ccc3ccccc3c2)c1 [TOLNAFTATE]", "pKi": 5.89}
{"compound": "O=C(CCCN1CC=C(n2c(=O)[nH]c3ccccc32)CC1)c1ccc(F)cc1", "pKi": 6.07}
{"compound": "CC[C@@H](CO)NC(=O)[C@@H]1C=C2c3cccc4[nH]cc(c34)C[C@H]2N(C)C1", "pKi": 9.02}
{"compound": "CC(C)[C@H]1C(=O)N2CCC[C@H]2[C@]2(O)O[C@](NC(=O)[C@@H]3C=C4c5cccc6[nH]cc(c56)C[C@H]4N(C)C3)(C(C)C)C(=O)N12", "pKi": 8.16}

Here's the next entry for you.
Qu. Any idea what its pKi is? The compound is CCCN1C[C@H](CSC)C[C@@H]2c3cccc4[nH]cc(c34)C[C@H]21 [PERGOLIDE]
Ans. 7.31

* * *

Molecular target: Thromboxane-A synthase (Homo sapiens);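 also: enzyme inhibition assay with PGH2 supplied as substrate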; also: in other assays of this panel Not Active means under 50% inhibition at 10 µM
Sequence (P24557 whole entry): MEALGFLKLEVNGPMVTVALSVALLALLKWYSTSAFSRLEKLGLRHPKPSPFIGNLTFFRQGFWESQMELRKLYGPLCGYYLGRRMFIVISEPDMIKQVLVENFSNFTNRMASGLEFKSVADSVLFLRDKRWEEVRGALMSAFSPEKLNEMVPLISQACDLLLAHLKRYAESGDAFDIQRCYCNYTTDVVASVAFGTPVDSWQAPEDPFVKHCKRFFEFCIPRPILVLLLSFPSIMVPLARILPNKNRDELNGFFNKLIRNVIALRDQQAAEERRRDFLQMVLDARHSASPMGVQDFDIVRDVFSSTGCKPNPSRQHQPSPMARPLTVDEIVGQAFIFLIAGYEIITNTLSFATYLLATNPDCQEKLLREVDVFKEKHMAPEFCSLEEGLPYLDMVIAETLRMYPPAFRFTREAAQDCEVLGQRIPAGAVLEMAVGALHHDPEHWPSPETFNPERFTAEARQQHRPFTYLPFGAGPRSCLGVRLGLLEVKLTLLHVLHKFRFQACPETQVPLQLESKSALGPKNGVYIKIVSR
Test: biochemical
Assay type: tissue-based, Platelet
Conditions: read-out: IC50
Flag rule - IC50 less than 2000 nM flags T; the remaining entries get F.

Reference set, count: 5
{"molecule": "N[C@@H]1[C@H]2CN(c3nc4c(cc3F)c(=O)c(C(=O)O)cn4-c3ccc(F)cc3F)C[C@@H]12", "discrete_label": "F"}
{"molecule": "CC/C(=C(\\c1ccccc1)c1ccc(OCCN(C)C)cc1)c1ccccc1", "discrete_label": "T"}
{"molecule": "Cc1c(C)c2c(c(C)c1O)CCC(C)(COc1ccc(CC3SC(=O)NC3=O)cc1)O2 (configuration not stated)", "discrete_label": "F"}
{"molecule": "Cc1cc(C(C#N)c2ccc(Cl)cc2)c(Cl)cc1NC(=O)c1cc(I)cc(I)c1O (configuration not stated)", "discrete_label": "T"}
{"molecule": "CC(C)CN(C[C@@H](O)[C@H](Cc1ccccc1)NC(=O)O[C@H]1CCOC1)S(=O)(=O)c1ccc(N)cc1", "discrete_label": "F"}

Continue with the molecule presented below.
Qu. Take the molecule `CC(C)(C)NC(=O)[C@@H]1C[C@@H]2CCCC[C@@H]2CN1C[C@@H](O)[C@H](Cc1ccccc1)NC(=O)[C@H](CC(N)=O)NC(=O)c1ccc2ccccc2n1` and say whether its IC50 is less than 2000 nM.
Ans. F

* * *

target: 5-hydroxytryptamine receptor 6 (Homo sapiens, UniProt P50406); assay type: cell membranes, HeLa, Membrane; details: hela; also: in other assays of this panel Not Active means under 50% inhibition at 10 µM
Sequence (P50406 whole entry): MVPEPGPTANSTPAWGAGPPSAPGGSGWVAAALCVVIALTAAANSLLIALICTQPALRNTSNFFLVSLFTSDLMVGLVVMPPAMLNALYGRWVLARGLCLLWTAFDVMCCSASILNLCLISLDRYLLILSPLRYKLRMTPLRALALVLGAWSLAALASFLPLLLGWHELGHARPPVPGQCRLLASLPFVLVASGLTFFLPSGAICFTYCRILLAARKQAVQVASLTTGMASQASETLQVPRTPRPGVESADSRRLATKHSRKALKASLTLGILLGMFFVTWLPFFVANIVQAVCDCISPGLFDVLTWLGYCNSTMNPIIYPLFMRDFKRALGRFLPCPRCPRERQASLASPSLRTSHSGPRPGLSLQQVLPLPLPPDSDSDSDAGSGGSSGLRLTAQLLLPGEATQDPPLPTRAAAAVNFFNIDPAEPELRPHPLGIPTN
readout_type: IC50

These recorded examples may help you get a feel for the data.
{"compound": "Sc1ncnc2nc[nH]c12 [MERCAPTOPURINE ANHYDROUS]", "target_entity": "5-hydroxytryptamine receptor 6 (Homo sapiens, UniProt P50406)", "observed_value": "Not Active"}
{"compound": "NC(=O)N1c2ccccc2CCc2ccccc21", "target_entity": "5-hydroxytryptamine receptor 6 (Homo sapiens, UniProt P50406)", "observed_value": "Not Active"}
{"compound": "O=C(O)CCCc1ccc(N(CCCl)CCCl)cc1", "target_entity": "5-hydroxytryptamine receptor 6 (Homo sapiens, UniProt P50406)", "observed_value": "Not Active"}
{"compound": "CC1(C)O[C@@H]2C[C@H]3[C@@H]4CCC5=CC(=O)CC[C@]5(C)[C@@]4(F)[C@@H](O)C[C@]3(C)[C@]2(C(=O)CCl)O1 [HALCINONIDE]", "target_entity": "5-hydroxytryptamine receptor 6 (Homo sapiens, UniProt P50406)", "observed_value": "Not Active"}
{"compound": "N#CC(C#N)=Cc1ccc(O)c(O)c1", "target_entity": "5-hydroxytryptamine receptor 6 (Homo sapiens, UniProt P50406)", "observed_value": "Not Active"}

Qu. Any idea what its IC50 is? The compound is `c1ccc(Nc2ccc(Nc3ccccc3)cc2)cc1`
Ans. Not Active

Qu. Any idea what its IC50 is? The compound is Cc1oncc1C(=O)Nc1ccc(C(F)(F)F)cc1 [LEFLUNOMIDE]
Ans. Not Active

Qu. Any idea what its IC50 is? The compound is `c1ccc([C@H]2CN3CCSC3=N2)cc1`
Ans. Not Active

Qu. Any idea what its IC50 is? The compound is `OC(Cn1cncn1)(Cn1cncn1)c1ccc(F)cc1F`
Ans. Not Active

Qu. Any idea what its IC50 is? The compound is `CC1(C)S[C@@H]2[C@H](NC(=O)Cc3ccccc3)C(=O)N2[C@H]1C(=O)O`
Ans. Not Active

Qu. Any idea what its IC50 is? The compound is `Nc1c(Br)cc(Br)cc1CN[C@H]1CC[C@H](O)CC1`
Ans. Not Active

Qu. Any idea what its IC50 is? The compound is `CNCCc1ccccn1`
Ans. Not Active

Qu. Any idea what its IC50 is? The compound is Nc1nc(N)nc(-c2cc(Cl)ccc2Cl)n1.O=C(O)/C=C\C(=O)O [IRSOGLADINE MALEATE]
Ans. Not Active

Qu. Any idea what its IC50 is? The compound is `Cc1onc(-c2ccccc2Cl)c1C(=O)N[C@@H]1C(=O)N2[C@@H]1SC(C)(C)[C@@H]2C(=O)O`
Ans. Not Active

Qu. Any idea what its IC50 is? The compound is `O=C1CC[C@@H](N2C(=O)c3ccccc3C2=O)C(=O)N1`
Ans. Not Active

Qu. Any idea what its IC50 is? The compound is `COc1nc(C)nc(Cl)c1NC1=NCCN1`
Ans. Not Active

Qu. Any idea what its IC50 is? The compound is CC(O)CO (stereo unspecified)
Ans. Not Active

Qu. Any idea what its IC50 is? The compound is `Cc1ccc2cc3c(ccc4ccccc43)c3c2c1CC3`
Ans. Not Active

Qu. Any idea what its IC50 is? The compound is CCC(C)n1ncn(-c2ccc(N3CCN(c4ccc(OCC5COC(Cn6cncn6)(c6ccc(Cl)cc6Cl)O5)cc4)CC3)cc2)c1=O (stereo unspecified)
Ans. Not Active

Qu. Any idea what its IC50 is? The compound is `Cc1c(C)c2c(c(C)c1O)CC[C@@](C)(CCC[C@H](C)CCC[C@H](C)CCCC(C)C)O2`
Ans. Not Active

Qu. Any idea what its IC50 is? The compound is CC(C)(C)NCC(O)c1cc(Cl)c(N)c(Cl)c1 (stereo unspecified)
Ans. Not Active

Qu. Any idea what its IC50 is? The compound is `N[C@@H](Cc1cc(I)c(Oc2ccc(O)c(I)c2)c(I)c1)C(=O)O`
Ans. Not Active

Qu. Any idea what its IC50 is? The compound is `C[C@](N)(Cc1ccc(O)c(O)c1)C(=O)O`
Ans. Not Active

Qu. Any idea what its IC50 is? The compound is CN(C)C(=O)Oc1cc(OC(=O)N(C)C)cc(C(O)CNC(C)(C)C)c1 (stereo unspecified)
Ans. Not Active

Qu. Any idea what its IC50 is? The compound is CC1(C)O[C@@H]2C[C@H]3[C@@H]4CCC5=CC(=O)C=C[C@]5(C)[C@@]4(F)[C@@H](O)C[C@]3(C)[C@]2(C(=O)CO)O1 [TRIAMCINOLONE ACETONIDE]
Ans. Not Active
